experiment notes: Selectivity index, ratio HC50 for hemolytic activity in human RBC to MIC for antibacterial activity against Escherichia coli ATCC 25922
Type: toxicity
cond: human red blood cells (erythrocytes)
Reported selectivity ratio by item:
Reply: number alone, nothing else.

Sample answers from the record:
NCCCCN1C(=O)N(CCCCN)C(=O)C(Cc2cc(Br)cc(Br)c2)(Cc2cc(Br)cc(Br)c2)C1=O.O=C(O)C(F)(F)F.O=C(O)C(F)(F)F    20
N=C(N)NCCCCN1C(=O)N(CCCCNC(=N)N)C(=O)C(Cc2ccc(C(F)(F)F)cc2)(Cc2cc(Br)cc(Br)c2)C1=O.O=C(O)C(F)(F)F.O=C(O)C(F)(F)F (stereo unspecified)    81
NCCCN1C(=O)N(CCCN)C(=O)C(Cc2ccc(Br)c(Cl)c2)(Cc2ccc(Br)c(Cl)c2)C1=O.O=C(O)C(F)(F)F.O=C(O)C(F)(F)F    40

Could you please provide reported selectivity ratio for N=C(N)NCCCN1C(=O)N(CCCNC(=N)N)C(=O)C(Cc2cc(C(F)(F)F)cc(C(F)(F)F)c2)(Cc2cc(C(F)(F)F)cc(C(F)(F)F)c2)C1=O.O=C(O)C(F)(F)F.O=C(O)C(F)(F)F ? Thanks!
56

Read the entry N=C(N)NCCCN1C(=O)N(CCCNC(=N)N)C(=O)C(Cc2cc(Br)cc(Br)c2)(Cc2cc(Br)cc(Br)c2)C1=O.O=C(O)C(F)(F)F.O=C(O)C(F)(F)F and write its reported selectivity ratio.
47
